Molecular target: T1, serum resistance-associated protein (SRA) from Trypanosoma brucei rhodesiense, recombinant SRA (SEQ ID NO: … (Trypanosoma brucei rhodesiense, UniProt O96637 31-274))
T1 construct: also called SRA protein
T1 sequence: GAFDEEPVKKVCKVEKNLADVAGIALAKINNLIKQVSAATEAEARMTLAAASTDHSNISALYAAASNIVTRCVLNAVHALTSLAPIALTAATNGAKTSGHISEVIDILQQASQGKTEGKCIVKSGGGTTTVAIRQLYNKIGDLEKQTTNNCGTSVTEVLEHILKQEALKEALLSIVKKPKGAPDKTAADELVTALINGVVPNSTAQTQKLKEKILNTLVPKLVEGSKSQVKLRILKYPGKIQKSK
Assay: SPR, mAb captured, 50 nM SRA, pH 4.5, 25C
Kindly state 50 nM SRA binding (RU) for each of the entries shown.
The response must be a number in RU with no trailing unit.

Suppose we examine the binder H2bM10093N (antibody, V domains shown, Chimeric antibody, human variable domains and mouse constant domains; also called H2aM10093N; H2M10093N) VH: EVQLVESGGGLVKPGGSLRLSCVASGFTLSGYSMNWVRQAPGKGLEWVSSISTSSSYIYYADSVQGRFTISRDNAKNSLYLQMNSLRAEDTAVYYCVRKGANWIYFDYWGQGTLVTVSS VL: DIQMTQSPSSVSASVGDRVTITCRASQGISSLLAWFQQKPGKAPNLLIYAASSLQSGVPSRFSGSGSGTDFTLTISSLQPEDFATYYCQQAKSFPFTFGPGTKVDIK ; what 50 nM SRA binding (RU) value has been reported?
138

Input H1H10059P (antibody, V domains shown, Fully human antibody with human IgG1 Fc (prefix H1H)) VH: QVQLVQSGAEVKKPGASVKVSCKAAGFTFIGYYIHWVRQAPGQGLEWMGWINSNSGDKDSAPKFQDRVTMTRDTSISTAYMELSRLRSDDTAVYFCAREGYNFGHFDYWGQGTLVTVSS VL: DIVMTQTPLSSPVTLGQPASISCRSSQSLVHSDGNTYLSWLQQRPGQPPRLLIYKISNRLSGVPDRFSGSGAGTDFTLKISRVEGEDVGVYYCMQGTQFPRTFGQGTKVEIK
73

# iterate: H1H10056P (antibody, V domains shown, Fully human antibody with human IgG1 Fc (prefix H1H)) VH: QVQLVESGGGVVQPGRSLRLSCSASGFTFSLYGMHWIRQAPGKGLEWVAVISYDGSNTYYGDSVKGRFTISRDNSKNTLYLQMNSLRTEDTAIYYCAKVYNWNYLFDYWGQGTLVTVSS VL: EIVLTQSPDTLSLSPGERATLSCRASQNVNNNFLAWYQQKPGQAPRLLIYGASSRATDIPERFSGSGSGTDFTLTISRLEPEDFAVYYCLHYVNSRTFGQGTKVEIK
72

Same thing, different binder: H1H10026P (antibody, V domains shown, Fully human antibody with human IgG1 Fc (prefix H1H)) VH: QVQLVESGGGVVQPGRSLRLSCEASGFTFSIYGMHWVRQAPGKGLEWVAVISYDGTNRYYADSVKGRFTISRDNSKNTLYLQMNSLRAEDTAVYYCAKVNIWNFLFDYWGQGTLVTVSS VL: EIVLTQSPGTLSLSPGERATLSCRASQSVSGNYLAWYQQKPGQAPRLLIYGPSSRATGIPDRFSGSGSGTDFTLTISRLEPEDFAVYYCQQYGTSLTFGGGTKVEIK
104

Record: H2aM10200N (antibody, V domains shown, Hybridoma-derived chimeric antibody, human variable domains and mouse constant domains (mouse Fc, prefix H2aM); also called H2M10200N) VH: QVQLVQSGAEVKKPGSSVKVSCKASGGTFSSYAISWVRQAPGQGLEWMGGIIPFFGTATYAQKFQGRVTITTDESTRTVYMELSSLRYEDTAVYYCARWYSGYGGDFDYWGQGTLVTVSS VL: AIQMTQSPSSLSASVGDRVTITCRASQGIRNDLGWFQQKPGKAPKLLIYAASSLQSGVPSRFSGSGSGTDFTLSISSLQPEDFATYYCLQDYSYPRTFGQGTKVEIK
159

Source listed as patent US20150376269A1.
